Tested on: PIP5K1C
Settings: concentration: 1 μM, replicates: in singlicate; n = 1;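 further: KINOMEscan kinase panel screen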
Kind request: treat 60% as inclusive, so %Inh at 60% or higher is class 1, anything lower is class 0.

{"COMPOUND": "Nc1ncc(-c2ccc3nccc(-c4ccncc4)c3c2)cc1S(=O)(=O)N1CCCCC1", "ASSIGNED LABEL": "class 0"}
{"COMPOUND": "COc1cccc(C2=C(Nc3cccc(O)c3)C(=O)NC2=O)c1", "ASSIGNED LABEL": "class 0"}
{"COMPOUND": "CCOc1nccc(-c2c(-c3ccc(F)cc3)ncn2C2CCNCC2)n1", "ASSIGNED LABEL": "class 0"}
{"COMPOUND": "Cc1cccc(Nc2nc(NCCN)ncc2C(N)=O)c1", "ASSIGNED LABEL": "class 1"}

* * *

Readings of %Inh for the listed compounds
Tested on: LOK
Construct: gene STK10
Conditions: concentration: 1 μM, replicates: in singlicate; n = 1
READOUT LABEL: %Inh (%)

{"COMPOUND": "Cc1cccc(Nc2nc(N[C@H]3CCCC[C@H]3N)ncc2C(N)=O)c1.Cl [GSK986310]", "READOUT LABEL": "%Inh", "MEASURED NUMBER": 0}
{"COMPOUND": "Cc1ccc(O)cc1Nc1ccnc2cc(-c3ccc(CN4CCCCC4)o3)ccc12 [GW557777]", "READOUT LABEL": "%Inh", "MEASURED NUMBER": 17}
{"COMPOUND": "CC(=O)Nc1cn2nc(Oc3cccc(NC(=O)c4cccc(C(F)(F)F)c4)c3)ccc2n1", "READOUT LABEL": "%Inh", "MEASURED NUMBER": 90.1}
{"COMPOUND": "O=C(Nc1n[nH]c2nc(-c3ccccc3)ccc12)C1CC1 [SB-708999]", "READOUT LABEL": "%Inh", "MEASURED NUMBER": 30}
{"COMPOUND": "Cc1ccc(NC(=O)c2ccc(Cl)c(Cl)c2)cc1-c1ccc(C(=O)Nc2ccncc2)cc1 [GSK1398460]", "READOUT LABEL": "%Inh", "MEASURED NUMBER": 0}
{"COMPOUND": "O=C(Nc1n[nH]c2cc(-c3cccs3)ccc12)C1CC1 [SB-731284]", "READOUT LABEL": "%Inh", "MEASURED NUMBER": 17}

* * *

Test system: PLK3
Settings: concentration: 1 μM, replicates: in singlicate; n = 1

{"COMPOUND": "COc1ccc(NC(=O)c2ccoc2)cc1-c1ccc(C(=O)NCC2CC2)cc1", "%Inh / %": 28}
{"COMPOUND": "Cl.Cl.NC(CNC(=O)c1cc(Br)c(-c2ccnc3[nH]ccc23)s1)c1ccccc1 (stereo not drawn)", "%Inh / %": 48}
{"COMPOUND": "N#Cc1cnc2cc(-c3cnc(CNCCN4CCOCC4)s3)ccc2c1Nc1ccc(Oc2ccccc2)cc1", "%Inh / %": 0}
{"COMPOUND": "Cn1cc(-c2ccc3c(c2)CCN3C(=O)Cc2cc(F)cc(C(F)(F)F)c2)c2c(N)ncnc21", "%Inh / %": 0}
{"COMPOUND": "Cl.Cl.NCC(NC(=O)c1cc(-c2cccnc2)c(-c2ccnc3[nH]ccc23)s1)c1ccccc1 (stereo not drawn)", "%Inh / %": 0}
{"COMPOUND": "COc1ccc(C)c(Nc2ccnc(Nc3ccc(-c4cnc[nH]4)cc3)n2)c1.Cl", "%Inh / %": 0}
{"COMPOUND": "COc1cccc(NC(=O)NCCNc2ccnc(Nc3ccc(F)cc3)n2)c1", "%Inh / %": 0}
{"COMPOUND": "CN(C)c1ncnc2nc[nH]c12", "%Inh / %": 30}
{"COMPOUND": "COC(=O)Nc1nc2cc(Oc3ccc(NC(=O)Nc4cccc(SC)c4)cc3)ccc2[nH]1.Cl", "%Inh / %": 0}
{"COMPOUND": "O=C(Nc1n[nH]c2nc(-c3ccccc3)ccc12)C1CC1", "%Inh / %": 0}
{"COMPOUND": "Cc1ccc(O)cc1Nc1ccnc2cc(-c3ccc(CN4CCCCC4)o3)ccc12", "%Inh / %": 0}
{"COMPOUND": "COc1cccc(C2=C(Nc3cccc(O)c3)C(=O)NC2=O)c1", "%Inh / %": 0}
{"COMPOUND": "Fc1cc(Cl)ccc1Nc1ccnc2cc(-c3ccc(CN4CCOCC4)o3)ccc12", "%Inh / %": 0}
{"COMPOUND": "Cc1ccc(NC(=O)c2ccnc(N3CCCCC3)c2)cc1-c1ccc(C(=O)NCC2CC2)cc1", "%Inh / %": 0}
{"COMPOUND": "CSc1ccc(NC2=C(c3ccc(Cl)cc3)C(=O)NC2=O)cc1", "%Inh / %": 0}
{"COMPOUND": "Cc1cccc(Nc2nc(N[C@H]3CCCC[C@H]3N)ncc2C(N)=O)c1.Cl", "%Inh / %": 0}
{"COMPOUND": "CCn1c(-c2nonc2N)nc2c(-c3ccccc3)ncc(OCCCN)c21.O=C(O)C(F)(F)F.O=C(O)C(F)(F)F", "%Inh / %": 0}
{"COMPOUND": "CC(=O)Nc1cn2nc(Oc3cccc(NC(=O)c4cccc(C(F)(F)F)c4)c3)ccc2n1", "%Inh / %": 0}

From: paper PMC5540273
